testProtocol: probe aLAP1 signal on lysate-treated microarray – cell lysate, small-molecule microarray, COS7 lysate, primary screen (AID 1124);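 note: lysate comes from COS7 cells expressing LAP1 and is applied at 0.3 µg/mL; score merges spot fluorescence near 667 nm with signal-to-noise over triplicate slides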
recordedConditions: probe aLAP1, fluorescence, higher = more signal
composite z-score class ranges: lower segment = under 0.1, middle segment = from 0.1 up to 0.6, upper segment = 0.6 and over

Answered examples (8):
{"molecule": "C[N+](C)(C)CCCCNC(=O)[C@H]1C[C@H]2C(=O)N[C@@H](Cc3ccccc3)C(=O)N2[C@H]1c1cccc(OCCO)c1", "answerLabel": "upper segment"}
{"molecule": "CC(C)NC(=O)[C@@H]1c2ccccc2C(=O)N(Cc2ccccc2C(F)(F)F)[C@H]1c1ccc(CO)cc1", "answerLabel": "upper segment"}
{"molecule": "CN1C(=O)C2C(C1=O)C1C=C(c3ccc(CO)cc3)C2C(C2CC2)N1C (configuration not stated)", "answerLabel": "lower segment"}
{"molecule": "O=C(NCc1ccccc1)[C@@H]1c2ccccc2C(=O)N(Cc2ccc(OC(F)(F)F)cc2)[C@H]1c1ccc(CO)cc1", "answerLabel": "upper segment"}
{"molecule": "N#Cc1ccc(-c2cccc(=O)o2)cc1", "answerLabel": "lower segment"}
{"molecule": "O=C1C2C=CC(C(O)c3ccc([N+](=O)[O-])cc3)N(Nc3ccccc3F)C2C(=O)N1c1ccccc1 (configuration not stated)", "answerLabel": "upper segment"}
{"molecule": "C=CC[C@]1(C(=O)NCC(O)CO)COC(c2ccc(OCCCO)cc2)=N1 (some centres not stated)", "answerLabel": "middle segment"}
{"molecule": "OCCCC1=CC(c2ccc(CN3CCCC3)cc2)N(Cc2cccc(OC(F)(F)F)c2)CC1 (configuration not stated)", "answerLabel": "lower segment"}

Band for the recorded composite z-score of O=C1C[C@@](C(=O)O)(c2ccc([N+](=O)[O-])cc2)[C@@H](c2ccc(CO)cc2)N1C1CCCCC1 ?
middle segment

###

System: Plasmodium falciparum Sir2 (PF13_0152, Sir2A)
testProtocol: Plasmodium falciparum Sir2A binding compounds – biochemical, small-molecule microarray, 635 nm fluorescence, primary screen (AID 1098);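 note: score merges spot fluorescence intensity with its signal-to-noise ratio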
recordedConditions: fluorescence 635 nm, higher = more signal
This section presents molecules with their documented composite z-score values.
// no unit, no text: just the number

Entry O=C1O[C@H](c2ccccc2)[C@H](c2ccccc2)N2[C@H]1[C@@H](C(=O)O)[C@]1(C(=O)Nc3ccc(C#CCCO)cc31)[C@H]2c1ccc(OCCO)cc1 — recorded composite z-score = -0.164

Entry under test: COc1ccc([Si](C)(C)[C@@H]2[C@@H](CC(=O)N3CCC[C@H]3CO)O[C@]3(C(=O)N(Cc4cccc(N5CCCCC5=O)c4)c4ccccc43)[C@H]2C)cc1 . Its composite z-score was 1.29

Noted for COCC(=C=CC[C@H](O)c1ccccc1OCCO)C[C@H](O)COCc1ccccc1 : its composite z-score reads 1.54

Sample O=C1OCCC=C[C@H]2OC34C=CCN(c5ccc6ccccc6c5)C(=O)[C@H]3N(CCO)C(=O)[C@@H]4C12 (some centres undefined) ; composite z-score observed: 1.89

###

Catalogue of z-score values
testProtocol: blockers of DNA damage checkpoint Chk1 activation – imaging, HeLa, hydroxyurea, phospho-Chk1 nuclear intensity, primary screen (AID 1187); note: test concentration not given here
recordedConditions: hydroxyurea-induced phospho-Chk1 immunofluorescence imaging, higher = more signal
Simply state the number, no unit and no words.

{"compound": "CO[C@H]1O[C@H](CO)[C@@H](OC(=O)Nc2ccccc2-c2ccccc2)[C@H](OC(=O)Nc2ccccc2)[C@H]1OC(=O)Nc1ccccc1", "experimentalResult": -0.15}
{"compound": "O=C1C2C=CC(C(O)c3ccc([N+](=O)[O-])cc3)N(Nc3ccccc3F)C2C(=O)N1c1ccccc1 (stereo not drawn)", "experimentalResult": -0.314}

// recorded z-score for COC(=O)C(CC#Cc1ccc2c(c1)[C@]1(C(=O)N2)[C@H](c2ccccc2OCCO)N2[C@H](c3ccccc3)[C@H](c3ccccc3)OC(=O)[C@H]2[C@@H]1C(=O)N1CCc2cc(OC)c(OC)cc2C1)C(=O)OC : -0.139

###

Recorded measurements of composite z-score, one per entry
Tested on: Chordin-like protein 2 (CHRDL2)
testProtocol: compounds binding chordin-like 2 – biochemical, small-molecule microarray, 635 nm fluorescence, primary screen (AID 1126);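 note: printed compound slides probed with Chrdl2 protein at 4 µg/mL for 1 h at 4 C; score merges 667 nm emission intensity with signal to noise over three replicate slides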
recordedConditions: fluorescence 635 nm, higher = more signal
Give the figure by itself; no unit, no explanation.

Past entries and their recorded results:
{"molecule": "C=C(COC)C(=O)CC[C@H](OC(=O)c1cccnc1)c1ccc(OCCO)cc1", "measuredTarget": "Chordin-like protein 2 (CHRDL2)", "composite z-score": 0.563}
{"molecule": "C=CCC(OC(C)=O)[C@@H]1[C@@H](N(Cc2cc3ccccc3o2)C(=O)Cc2ccc(OC)cc2)c2cc(OCCCO)ccc2N1C(=O)c1ccc2ccccc2n1 (some centres not stated)", "measuredTarget": "Chordin-like protein 2 (CHRDL2)", "composite z-score": 0.498}
{"molecule": "COc1ccc(NN2C(C(O)c3ccc(I)cc3)C=CC3C(=O)N(C4CCCCC4)C(=O)C32)cc1 (configuration not stated)", "measuredTarget": "Chordin-like protein 2 (CHRDL2)", "composite z-score": -0.195}
{"molecule": "CC(C)C[C@H]1NC(=O)C([C@@H](C)OCc2ccccc2)NC(=O)[C@@]23C(=O)N[C@@H](Cc4ccccc4)C2[C@H](C)[C@@]2(C)O[C@H]2C3/C=C/C/C=C\\CNC1=O (some centres not stated)", "measuredTarget": "Chordin-like protein 2 (CHRDL2)", "composite z-score": 0.736}

The reported value for COc1cc(CO)cc(I)c1O[C@H]1C=C(C(=O)NCCO)C[C@@H]2O[C@H]12 in terms of composite z-score is 1.36

So for NCCCCCCNC(=O)[C@@H]1C[C@@H]2C(=O)N3CCC[C@H]3C(=O)N2[C@@H]1c1cccc(OCCO)c1 , the logged composite z-score turned out to be 1.16

Reported composite z-score for COCCCNC(=O)[C@@H]1c2ccccc2C(=O)N(Cc2ccc(OC(F)(F)F)cc2)[C@H]1c1ccc(CO)cc1 was 0.286

###

testProtocol: plasmodial surface anion channel blockers, osmotic lysis – cell-based, P. falciparum Indochina, OD700, 2 h, primary screen (AID 1155);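 note: lysis reports solute entry through the parasite surface anion channel PSAC; channel blockers reduce lysis of infected cells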
recordedConditions: P. falciparum Indochina infected erythrocytes, higher = more signal, called active from +8 up or from −8 down
Each entry gets 0 (no) if its z-score stays under 0.5, and 1 (yes) if its z-score is 0.5 or above.

As a guide, the following entries are already answered.
{"molecule": "O=C(NC1CC1)[C@@H]1c2ccccc2C(=O)N(CC23CC4CC(CC(C4)C2)C3)[C@H]1c1ccc(CO)cc1", "answerLabel": "0 (no)"}
{"molecule": "O=C(NCc1ccc(F)cc1)[C@H]1C[C@H]2C(=O)N3CCC[C@H]3C(=O)N2[C@H]1c1ccc(O)cc1", "answerLabel": "0 (no)"}

Can COC(=O)[C@@]1(Cc2ccc(OC)cc2)[C@H]2c3cc(C(=O)N(C)C)[nH]c3C[C@H]2CN1C(=O)c1ccccc1 be said to have z-score at or above 0.5?
1 (yes)

Quick check: does CC1CC/C=C\[C@H]2OC34C=CCN(Cn5nnc6ccccc65)C(=O)[C@H]3N(CCCCCCO)C(=O)[C@@H]4C2C(=O)O1 (some centres not stated) have z-score greater than or equal to 0.5?
0 (no)

Test whether the molecule CC(C)OC(=O)CC(=O)CC(O)c1cccc([N+](=O)[O-])c1 (configuration not stated) records z-score of 0.5 or higher.
1 (yes)

Identify whether the reported z-score of the following molecule is 0.5 or greater: COc1ccc([Si](C)(C)[C@@H]2[C@@H](CC(=O)N3CCC[C@H]3CO)O[C@]3(C(=O)N(Cc4cccc(N5CCCCC5=O)c4)c4ccccc43)[C@H]2C)cc1
1 (yes)

Please indicate if the recorded z-score for O=C1C[C@@](C(=O)NC2CC2)(c2ccc([N+](=O)[O-])cc2)[C@@H](c2ccc(CO)cc2)N1C1CCCCC1 meets or exceeds 0.5.
0 (no)

###

Listed next: entries and their corresponding composite z-score.
System: Plasmodium falciparum Sir2 (PF13_0152, Sir2A)
testProtocol: Plasmodium falciparum Sir2A binding compounds – biochemical, small-molecule microarray, 635 nm fluorescence, primary screen (AID 1098);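 note: score merges spot fluorescence intensity with its signal-to-noise ratio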
recordedConditions: fluorescence 635 nm, higher = more signal

Illustrative cases are given below, each with its answer.
{"compoundSmiles": "COCCOC(=O)N1C(=O)[C@@]2(c3ccccc31)[C@H](C(=O)N1CCN(c3ncccn3)CC1)[C@H]1C(=O)O[C@H](c3ccccc3)[C@H](c3ccccc3)N1[C@@H]2c1ccccc1OCCO", "composite z-score": 1.33}
{"compoundSmiles": "COC(=O)C(CC#Cc1ccc2c(c1)[C@]1(C(=O)N2)[C@H](c2ccc(OCCO)cc2)N2[C@H](c3ccccc3)[C@H](c3ccccc3)OC(=O)[C@H]2[C@@H]1C(=O)N1CCCCCCC1)C(=O)OC", "composite z-score": 1.8}

Continue with the next molecule.
# composite z-score (molecule: O=C1C[C@@](C(=O)O)(c2ccc([N+](=O)[O-])cc2)[C@@H](c2ccc(CO)cc2)N1C1CCCCC1 ) is 0.869
